# targetEntity: T1, human LRRC15 extracellular domain with C-terminal His tag (human, UniProt Q8TF66 22-538)
# T1 construct: Recombinant, made in HEK293; the entry holds the extracellular domain and the His tag; SPR analyte; also called TPP-1545; hLRRC15 CT-His
# T1 sequence: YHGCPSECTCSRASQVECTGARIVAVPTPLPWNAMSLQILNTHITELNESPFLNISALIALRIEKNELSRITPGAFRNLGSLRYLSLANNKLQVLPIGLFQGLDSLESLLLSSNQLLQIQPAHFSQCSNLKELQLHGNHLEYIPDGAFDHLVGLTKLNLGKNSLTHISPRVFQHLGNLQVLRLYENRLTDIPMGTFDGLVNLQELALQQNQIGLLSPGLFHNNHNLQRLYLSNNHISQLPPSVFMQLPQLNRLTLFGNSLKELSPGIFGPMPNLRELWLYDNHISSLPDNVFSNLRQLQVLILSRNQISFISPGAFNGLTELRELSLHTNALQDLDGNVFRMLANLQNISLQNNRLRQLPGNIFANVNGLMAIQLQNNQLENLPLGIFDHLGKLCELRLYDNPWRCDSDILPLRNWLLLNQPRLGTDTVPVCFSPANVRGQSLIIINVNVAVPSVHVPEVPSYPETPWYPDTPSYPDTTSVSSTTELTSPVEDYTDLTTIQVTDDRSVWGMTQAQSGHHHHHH
# protocolDetails: calculated from SPR kd, 20°C
observedProperty: Complex Half Life (h)
Please give a number only; it is taken to be in h.

What measured Complex Half Life goes with TPP-17078 (antibody, human IgG1, kappa, V domains shown, also called 438H-M308-H05-hIgGkappa) VH: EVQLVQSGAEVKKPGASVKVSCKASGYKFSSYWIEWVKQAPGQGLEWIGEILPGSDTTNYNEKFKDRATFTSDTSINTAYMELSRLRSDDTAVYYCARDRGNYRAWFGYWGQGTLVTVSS VL: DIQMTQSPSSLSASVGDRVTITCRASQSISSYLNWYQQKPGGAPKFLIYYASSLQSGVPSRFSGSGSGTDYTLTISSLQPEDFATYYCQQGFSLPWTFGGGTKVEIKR ?
4.18

How about TPP-17421 (antibody, human IgG1, kappa, V domains shown, also called 438H-M306-C11-hIgG1Kappa) VH: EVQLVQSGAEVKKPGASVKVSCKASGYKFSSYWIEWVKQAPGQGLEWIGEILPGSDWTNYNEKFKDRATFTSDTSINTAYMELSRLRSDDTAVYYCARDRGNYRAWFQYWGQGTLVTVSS VL: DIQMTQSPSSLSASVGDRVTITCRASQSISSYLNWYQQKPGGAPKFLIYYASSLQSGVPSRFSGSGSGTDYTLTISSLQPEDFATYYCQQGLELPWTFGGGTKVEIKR ?
4.48

How about TPP-14392 (antibody, human IgG1, kappa, V domains shown, also called 13612-rec05-hIgG1Kappa) VH: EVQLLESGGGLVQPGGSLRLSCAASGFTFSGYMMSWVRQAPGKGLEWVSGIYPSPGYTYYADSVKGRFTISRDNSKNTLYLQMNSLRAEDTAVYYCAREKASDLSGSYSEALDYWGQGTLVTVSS VL: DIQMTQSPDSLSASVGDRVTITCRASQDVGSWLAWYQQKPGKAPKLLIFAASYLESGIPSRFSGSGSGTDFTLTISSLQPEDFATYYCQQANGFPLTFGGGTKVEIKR ?
1.48
